Quick record: AC50, Cytochrome P450 2D6 (Homo sapiens).

- compound: "O=C(N/C(=C/c1cccs1)c1nc2ccccc2[nH]1)c1ccccc1"
  measured_target: "Cytochrome P450 2D6 (Homo sapiens)"
  AC50: "28.2 µM (inconclusive)"
- compound: "CC(C)NC[C@H]1CCc2cc(CO)c([N+](=O)[O-])cc2N1"
  measured_target: "Cytochrome P450 2D6 (Homo sapiens)"
  AC50: "6.31 µM (inconclusive)"
- compound: "C[C@@H](C(=O)Nc1ccc2ccccc2c1)[C@@H]1C[C@@]1(C)[C@@H](NC(=O)OCc1ccccc1)c1ccccc1"
  measured_target: "Cytochrome P450 2D6 (Homo sapiens)"
  AC50: "12.6 µM (inconclusive)"

Please report AC50 for every entry that follows.
1. COc1cccc(Cn2c(=O)cnc3cnc(N4CCN(C)CC4)nc32)c1
2. O=C(NC1CCCCC1)C(Cc1ccccc1)N1C(=O)C2C3CCC(C3)C2C1=O (stereo not drawn)
3. C[N+](C)(C)CCN(Cc1ccc(Cl)cc1)c1ccccn1.[I-]
4. Cc1ccccc1C(=O)N/N=C/c1ccncc1
5. COC(=O)[C@@]1(Cc2ccc(F)cc2)[C@H]2c3cc(C(=O)N(C)C)n(Cc4ccc(O)c(OC)c4)c3C[C@H]2CN1C(=O)c1ccccc1

20 µM (inconclusive)
31.6 µM (inconclusive)
0.251 µM (inconclusive)
22.4 µM (inconclusive)
20 µM (inconclusive)
